test system: CP191; assay: qHTS profiling for inhibitors of Plasmodium falciparum proliferation (AID 504749); further: nearly all actives have a fitted effect of over 60% in size; details: P. falciparum in erythrocytes, SYBR Green DNA, 72 h; series mostly up to 28.7 µM
Results filed as inconclusive are left out. Calls of active or inactive are those of the source. The call rests on the fitted dose curve; in most records, active means well fitted inhibition curve with a large enough effect; inconclusive means small, poorly fitted or top-dose-only effect; inactive means flat fitted curve, though single readings scatter.
# output must be one of 1 (yes) for active, 0 (no) for inactive

Query :: Identify the outcome logged in this assay for the compound shown: CC1CN(c2c(F)c(N)c3c(=O)c(C(=O)O)cn(C4CC4)c3c2F)CC(C)N1 (stereo unspecified)
Result :: 0 (no)

Query :: Identify the outcome logged in this assay for the compound shown: OC[C@@H]1O[C@](CO)(O[C@H]2O[C@H](CO)[C@@H](O)[C@H](O)[C@H]2O)[C@H](O)[C@H]1O
Result :: 0 (no)

Query :: Identify the outcome logged in this assay for the compound shown: CC1C(=O)C(=O)C=CN1C (stereo unspecified)
Result :: 0 (no)

Query :: Identify the outcome logged in this assay for the compound shown: CC(C)(C)C(=O)OCC(=O)C1CCC2C3CCC4=CC(=O)CCC4(C)C3CCC12C (stereo unspecified)
Result :: 0 (no)

Query :: Identify the outcome logged in this assay for the compound shown: C/C1=C2/[N-]C(C(CC(N)=O)[C@@]2(C)CCC(=O)NCC(C)OP(=O)([O-])O[C@H]2[C@@H](O)[C@@H](n3cnc4cc(C)c(C)cc43)O[C@@H]2CO)[C@]2(C)N=C(/C(C)=C3N=C(/C=C4N=C1C(CCC(N)=O)C\4(C)C)[C@@H](CCC(N)=O)[C@]\3(C)CC(N)=O)[C@@H](CCC(N)=O)[C@]2(C)CC(N)=O.CC(=O)O.[Co] (stereo partly specified)
Result :: 0 (no)

Query :: Identify the outcome logged in this assay for the compound shown: O=C(O)C(O)c1ccccc1 (stereo unspecified)
Result :: 0 (no)

Query :: Identify the outcome logged in this assay for the compound shown: CC(=O)N1CC(O)CC1C(=O)O (stereo unspecified)
Result :: 0 (no)

Query :: Identify the outcome logged in this assay for the compound shown: CCC(=O)O[C@]1(C(=O)CCl)[C@@H](C)CC2C3C[C@H](F)C4=CC(=O)C=CC4(C)[C@@]3(F)C(O)CC21C (stereo partly specified)
Result :: 1 (yes)

Query :: Identify the outcome logged in this assay for the compound shown: C=C(NCc1ccccc1)c1ccccc1O
Result :: 0 (no)

Query :: Identify the outcome logged in this assay for the compound shown: CC(C)C[C@@H](NC(=O)[C@@H](Cc1ccccc1)NC(=O)c1cnccn1)B(O)O
Result :: 1 (yes)

Query :: Identify the outcome logged in this assay for the compound shown: CC[C@@H](C)C(N)C(=O)O (stereo partly specified)
Result :: 0 (no)
